Values were extracted from paper PMC8717366.

biological target: α4β1-VCAM-1 Fc chimera (Homo sapiens, UniProt P05556+P13612); construct: purchased R&D Systems Co (Minneapolis, MN); assay: ELISA solid-phase ligand-receptor binding, integrin α4β1 to VCAM-1 Fc chimera
Sequence (P13612 34-970 limits assumed, change not shown): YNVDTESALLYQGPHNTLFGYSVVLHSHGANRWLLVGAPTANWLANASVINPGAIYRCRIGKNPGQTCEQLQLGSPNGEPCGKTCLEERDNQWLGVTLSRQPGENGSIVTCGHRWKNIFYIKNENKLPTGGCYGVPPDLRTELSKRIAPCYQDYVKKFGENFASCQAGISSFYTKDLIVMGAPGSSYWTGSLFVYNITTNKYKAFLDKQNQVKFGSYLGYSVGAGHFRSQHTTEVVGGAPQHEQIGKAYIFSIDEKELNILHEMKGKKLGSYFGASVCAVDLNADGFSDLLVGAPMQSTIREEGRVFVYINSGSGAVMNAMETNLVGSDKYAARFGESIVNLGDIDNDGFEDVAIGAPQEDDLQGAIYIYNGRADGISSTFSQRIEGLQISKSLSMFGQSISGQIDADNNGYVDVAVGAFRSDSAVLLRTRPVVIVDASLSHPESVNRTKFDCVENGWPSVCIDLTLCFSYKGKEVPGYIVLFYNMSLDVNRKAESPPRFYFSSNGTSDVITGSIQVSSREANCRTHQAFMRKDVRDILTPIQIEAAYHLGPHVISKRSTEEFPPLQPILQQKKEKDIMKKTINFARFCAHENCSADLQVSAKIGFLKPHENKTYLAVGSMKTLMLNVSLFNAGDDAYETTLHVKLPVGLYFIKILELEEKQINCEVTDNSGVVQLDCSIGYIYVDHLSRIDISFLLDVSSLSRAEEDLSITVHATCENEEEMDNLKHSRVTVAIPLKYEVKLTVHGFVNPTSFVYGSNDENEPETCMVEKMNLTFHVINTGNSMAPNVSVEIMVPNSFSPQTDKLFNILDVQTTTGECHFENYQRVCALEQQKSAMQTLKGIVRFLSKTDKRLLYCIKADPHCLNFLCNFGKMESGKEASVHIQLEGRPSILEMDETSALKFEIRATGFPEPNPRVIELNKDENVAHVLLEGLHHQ
Sequence (P05556 21-728 limits assumed, change not shown): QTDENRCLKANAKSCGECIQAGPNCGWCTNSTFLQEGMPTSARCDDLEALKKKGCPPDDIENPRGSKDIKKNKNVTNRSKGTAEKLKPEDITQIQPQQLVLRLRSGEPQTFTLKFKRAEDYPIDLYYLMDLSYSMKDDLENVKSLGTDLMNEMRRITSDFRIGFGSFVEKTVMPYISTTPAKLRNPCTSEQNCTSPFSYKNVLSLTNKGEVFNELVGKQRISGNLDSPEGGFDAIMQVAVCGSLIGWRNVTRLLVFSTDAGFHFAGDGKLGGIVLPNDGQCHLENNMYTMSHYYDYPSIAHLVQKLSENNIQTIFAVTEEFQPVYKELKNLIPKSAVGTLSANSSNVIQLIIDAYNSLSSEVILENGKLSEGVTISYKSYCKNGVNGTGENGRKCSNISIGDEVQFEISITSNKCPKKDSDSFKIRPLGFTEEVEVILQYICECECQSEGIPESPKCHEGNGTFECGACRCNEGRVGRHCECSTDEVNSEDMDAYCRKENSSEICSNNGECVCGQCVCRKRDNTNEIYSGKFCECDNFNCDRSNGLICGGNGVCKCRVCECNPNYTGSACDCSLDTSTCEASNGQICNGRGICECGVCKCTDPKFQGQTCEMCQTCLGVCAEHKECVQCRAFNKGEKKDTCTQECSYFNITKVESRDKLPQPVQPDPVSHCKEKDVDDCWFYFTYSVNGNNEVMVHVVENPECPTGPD
Numbered stars: 1 amine (or outer) side, 2 acyl side, 3 side chain; on linkers, the order of the positions; unused ones are H or OH. Bridge positions count the residues as written; N and C are the ends. Square brackets hold non-standard residues; d marks the D form. Peptide text beside a SMILES is read from it. N(6-aminohexyl)Gly = O=C(CN(CCCCCCN[*:3])[*:1])[*:2]; N(2-Aminoethyl)Gly = O=C(CN(CCN[*:3])[*:1])[*:2]; CO = O=C([*:1])[*:2]; Nlys = NCCCCNCC(=O)O
As shown below, each of these compounds has a reported IC50 value.
Form entry: value (µM) — number only.

Example cases with answers are listed next.
INSERT INTO measurements (compound, target, measurement_label, unit, observed) VALUES
  ('CSCC[C@@H]1NC(=O)[C@H]([C@@H](C)O)NC(=O)CN(C(=O)[C@@H](N)CCCCN)CCNC(=O)NCCN(CC(=O)N[C@@H](CC(C)C)C(N)=O)C(=O)[C@H](CC(=O)O)NC(=O)[C@H](CC(C)C)NC1=O [visabron c (2–2)] (H-K[N(2-Aminoethyl)Gly]TMLD[N(2-Aminoethyl)Gly]L-NH2; linker 2-7 via CO)', 'α4β1-VCAM-1 Fc chimera (Homo sapiens, UniProt P05556+P13612)', 'IC50', 'µM', 2.3),
  ('CSCC[C@@H]1NC(=O)[C@H]([C@@H](C)O)NC(=O)CN(C(=O)[C@@H](N)CCCCN)CCCCCCNC(=O)NCCCCCCN(CC(=O)N[C@@H](CC(C)C)C(N)=O)C(=O)[C@H](CC(=O)O)NC(=O)[C@H](CC(C)C)NC1=O [visabron c (6–6)] (H-K[N(6-aminohexyl)Gly]TMLD[N(6-aminohexyl)Gly]L-NH2; linker 2-7 via CO)', 'α4β1-VCAM-1 Fc chimera (Homo sapiens, UniProt P05556+P13612)', 'IC50', 'µM', 0.7);

-- ask Need IC50 of CSCC[C@@H]1NC(=O)[C@H]([C@@H](C)O)NC(=O)CN(C(=O)[C@@H](N)CCCCN)CCCCNC(=O)NCCCCN(CC(=O)N[C@@H](CC(C)C)C(N)=O)C(=O)[C@H](CC(=O)O)NC(=O)[C@H](CC(C)C)NC1=O [visabron c (4–4)] (H-K[Nlys]TMLD[Nlys]L-NH2; linker 2-7 via CO) , thanks.
-- reply 0.4

###

target: α9β1 (Homo sapiens, UniProt P05556+Q13797); construct: generated by transfection with full-length α9 expression plasmid pcDNAIneoa9; assay: Adhesion of α9-SW480 overexpressing cells to VCAM-1; conditions: n=6, Table S6, read-out: IC50 α9β1 (linear peptides)
Sequence (Q13797 30-1035): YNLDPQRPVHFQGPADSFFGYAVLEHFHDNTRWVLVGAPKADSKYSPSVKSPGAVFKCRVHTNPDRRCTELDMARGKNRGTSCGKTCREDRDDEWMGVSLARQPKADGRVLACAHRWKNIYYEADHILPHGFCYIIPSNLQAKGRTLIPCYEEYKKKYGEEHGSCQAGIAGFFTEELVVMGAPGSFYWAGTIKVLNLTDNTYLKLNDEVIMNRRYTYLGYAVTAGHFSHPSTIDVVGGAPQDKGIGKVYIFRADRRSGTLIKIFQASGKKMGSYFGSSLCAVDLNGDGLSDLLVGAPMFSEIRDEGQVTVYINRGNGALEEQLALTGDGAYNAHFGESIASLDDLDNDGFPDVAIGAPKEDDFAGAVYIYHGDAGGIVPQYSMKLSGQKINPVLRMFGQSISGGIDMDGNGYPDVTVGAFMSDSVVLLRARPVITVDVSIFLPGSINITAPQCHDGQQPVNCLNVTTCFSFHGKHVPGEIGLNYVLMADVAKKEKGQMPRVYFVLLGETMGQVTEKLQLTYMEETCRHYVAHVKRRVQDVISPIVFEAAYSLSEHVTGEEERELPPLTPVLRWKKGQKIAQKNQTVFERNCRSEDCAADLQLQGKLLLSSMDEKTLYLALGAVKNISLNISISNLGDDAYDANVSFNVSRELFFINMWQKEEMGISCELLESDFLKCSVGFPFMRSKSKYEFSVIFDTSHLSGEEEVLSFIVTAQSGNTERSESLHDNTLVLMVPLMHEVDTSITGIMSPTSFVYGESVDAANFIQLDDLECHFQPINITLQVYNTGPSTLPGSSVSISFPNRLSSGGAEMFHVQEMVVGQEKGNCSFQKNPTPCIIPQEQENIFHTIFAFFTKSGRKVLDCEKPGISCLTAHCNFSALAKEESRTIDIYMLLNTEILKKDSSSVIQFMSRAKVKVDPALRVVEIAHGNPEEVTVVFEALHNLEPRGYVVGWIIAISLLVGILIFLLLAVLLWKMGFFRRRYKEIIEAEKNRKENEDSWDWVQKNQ
Sequence (P05556 21-798): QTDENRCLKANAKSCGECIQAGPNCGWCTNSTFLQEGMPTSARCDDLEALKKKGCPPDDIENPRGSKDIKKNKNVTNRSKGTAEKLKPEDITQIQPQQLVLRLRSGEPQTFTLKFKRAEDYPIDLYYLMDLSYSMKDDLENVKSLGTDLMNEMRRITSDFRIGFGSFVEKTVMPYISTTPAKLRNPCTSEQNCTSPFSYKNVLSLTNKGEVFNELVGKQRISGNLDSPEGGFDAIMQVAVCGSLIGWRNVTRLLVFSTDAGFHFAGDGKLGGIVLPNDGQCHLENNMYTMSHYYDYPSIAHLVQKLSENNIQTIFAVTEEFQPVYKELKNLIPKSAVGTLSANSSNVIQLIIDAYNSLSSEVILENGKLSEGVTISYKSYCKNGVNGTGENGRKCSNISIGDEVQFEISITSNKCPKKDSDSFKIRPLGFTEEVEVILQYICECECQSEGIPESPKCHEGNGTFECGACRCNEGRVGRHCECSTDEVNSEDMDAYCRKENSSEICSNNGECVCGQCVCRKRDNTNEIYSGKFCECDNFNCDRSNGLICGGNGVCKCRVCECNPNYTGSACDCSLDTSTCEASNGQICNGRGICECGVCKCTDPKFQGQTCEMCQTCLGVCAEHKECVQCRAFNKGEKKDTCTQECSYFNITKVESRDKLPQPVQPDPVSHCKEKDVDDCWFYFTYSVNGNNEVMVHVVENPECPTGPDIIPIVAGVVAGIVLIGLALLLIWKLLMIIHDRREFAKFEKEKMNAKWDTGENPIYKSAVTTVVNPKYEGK
Peptide text beside a SMILES is read from it.
MEASUREMENT LABEL: IC50
# output: numeric value plus its unit

Example cases with answers are listed next.
INSERT INTO measurements (compound, measurement_label, observed) VALUES
  ('CSCC[C@H](NC(=O)[C@H](C)NC(=O)[C@H](CCCNC(=N)N)NC(=O)[C@H](CCCCN)NC(=O)[C@@H](N)CS)C(=O)N[C@@H](CC(C)C)C(=O)N[C@@H](CC(=O)O)C(=O)NCC(=O)N[C@@H](CC(C)C)C(=O)N[C@@H](CC(N)=O)C(=O)N[C@@H](CC(=O)O)C(=O)N[C@@H](Cc1ccc(O)cc1)C(=O)N[C@@H](CS)C(N)=O [sequence 4, CKRAMLDGLNDYC] (H-CKRAMLDGLNDYC-NH2; N-terminus and C-terminus assumed)', 'IC50', '2840 µM'),
  ('CSCC[C@H](NC(=O)[C@@H](NC(=O)[C@H](CCCNC(=N)N)NC(=O)[C@H](CCCCN)NC(=O)[C@@H](N)CS)[C@@H](C)O)C(=O)N[C@@H](CC(C)C)C(=O)N[C@@H](CC(=O)O)C(=O)NCC(=O)N[C@@H](CC(C)C)C(=O)N[C@@H](CC(N)=O)C(=O)N[C@@H](CC(=O)O)C(=O)N[C@@H](Cc1ccc(O)cc1)C(=O)N[C@@H](CS)C(N)=O [sequence 3, CKRTMLDGLNDYC] (H-CKRTMLDGLNDYC-NH2; N-terminus and C-terminus assumed)', 'IC50', '1250 µM'),
  ('CSCC[C@H](NC(=O)[C@@H](NC(=O)[C@H](CCCNC(=N)N)NC(=O)[C@@H](N)CCCCN)[C@@H](C)O)C(=O)N[C@@H](CC(C)C)C(=O)N[C@@H](CC(=O)O)C(=O)NCC(=O)N[C@@H](CC(C)C)C(N)=O [sequence 5, KRTMLDGL] (H-KRTMLDGL-NH2; N-terminus and C-terminus assumed)', 'IC50', '1260 µM');

# ---- query compound ----
-- ask Need IC50 of CSCC[C@H](NC(=O)[C@@H](NC(=O)CNC(=O)[C@@H](N)CCCCN)[C@@H](C)O)C(=O)N[C@@H](CC(C)C)C(=O)N[C@@H](CC(=O)O)C(=O)NCC(=O)N[C@@H](CC(C)C)C(N)=O [sequence 6, KG39TMLDG44L] (H-KGTMLDGL-NH2; N-terminus and C-terminus assumed) , thanks.
-- reply 1450 µM
